Test system: E. coli
TEST_METHOD_NOTES: Antibiotic disc susceptibility testing (BSAC method)
Assay type: cell-based, Escherichia coli
RUN_PARAMETERS: antibiotic disks (Oxoid), amount per disc per antibiotic (5-30 μg)
READOUT_KIND: Sensitive (S)/Resistant (R), E. coli

• [H]/N=C(/N)N[C@H]1[C@H](O)[C@@H](O)[C@H](O[C@@H]2O[C@@H](C)[C@](O)(C=O)[C@H]2O[C@@H]2O[C@@H](CO)[C@H](O)[C@@H](O)[C@@H]2NC)[C@@H](N/C(N)=N\[H])[C@@H]1O = R
• CNC(C)C1CCC(N)C(OC2C(N)CC(N)C(OC3OCC(C)(O)C(NC)C3O)C2O)O1 (stereo not drawn) = S
• CCC[C@@H]1C[C@@H](C(=O)N[C@@H]([C@H]2O[C@H](SC)[C@H](O)[C@@H](O)[C@H]2O)[C@@H](C)O)N(C)C1 = R

---

Test system: S. Typhimurium
TEST_METHOD_NOTES: Antibiotic disc susceptibility testing (BSAC method)
Format: cell-based, Salmonella enterica serovar Typhimurium
RUN_PARAMETERS: antibiotic disks (Oxoid), amount per disc per antibiotic (5-30 μg)
READOUT_KIND: Sensitive (S)/Resistant (R), S. Typhimurium

• CC1COc2c(N3CCN(C)CC3)c(F)cc3c(=O)c(C(=O)O)cn1c23 (stereo not shown) [Oflaxacin] = S
• CCC[C@@H]1C[C@@H](C(=O)N[C@@H]([C@H]2O[C@H](SC)[C@H](O)[C@@H](O)[C@H]2O)[C@@H](C)O)N(C)C1 [Lincomycin] = R
• CC1=C(C(=O)O)N2C(=O)[C@@H](NC(=O)[C@H](N)c3ccccc3)[C@H]2SC1 [Cefalexin] = S
• CC[C@H]1OC(=O)[C@H](C)[C@@H](O[C@H]2C[C@@](C)(OC)[C@@H](O)[C@H](C)O2)[C@H](C)[C@@H](O[C@@H]2O[C@H](C)C[C@H](N(C)C)[C@H]2O)[C@](C)(O)C[C@@H](C)C(=O)[C@H](C)[C@@H](O)[C@]1(C)O [Erythromycin] = R
• COc1cc(Cc2cnc(N)nc2N)cc(OC)c1OC [Trimethoprim] = S

Let us examine a further case.
Given the compound C[C@@H](O)[C@H]1C(=O)N2C(C(=O)O)=C(SCCN=CN)C[C@H]12 [Imipenem] , what is its reported Sensitive (S)/Resistant (R), S. Typhimurium? S

---

System: S. Typhimurium
TEST_METHOD_NOTES: Antibiotic disc susceptibility testing (BSAC method)
Assay type: cell-based, Salmonella enterica serovar Typhimurium
RUN_PARAMETERS: antibiotic disks (Oxoid), amount per disc per antibiotic (5-30 μg)
READOUT_KIND: Sensitive (S)/Resistant (R), S. Typhimurium

Examples with their reported Sensitive (S)/Resistant (R), S. Typhimurium follow.
* CO/N=C(\C(=O)N[C@@H]1C(=O)N2C(C(=O)O)=C(COC(N)=O)CS[C@H]12)c1ccco1 | S
* [H]/N=C(/N)N[C@H]1[C@H](O)[C@@H](O)[C@H](O[C@@H]2O[C@@H](C)[C@](O)(C=O)[C@H]2O[C@@H]2O[C@@H](CO)[C@H](O)[C@@H](O)[C@@H]2NC)[C@@H](N/C(N)=N\[H])[C@@H]1O | S
* COc1cccc(OC)c1C(=O)N[C@@H]1C(=O)N2[C@@H]1SC(C)(C)[C@@H]2C(=O)O | S
* CN[C@H](CC(C)C)C(=O)N[C@H]1C(=O)N[C@@H](CC(N)=O)C(=O)N[C@H]2C(=O)N[C@H]3C(=O)N[C@H](C(=O)N[C@H](C(=O)O)c4cc(O)cc(O)c4-c4cc3ccc4O)[C@H](O)c3ccc(c(Cl)c3)Oc3cc2cc(c3O[C@@H]2O[C@H](CO)[C@@H](O)[C@H](O)[C@H]2O[C@H]2C[C@](C)(N)[C@H](O)[C@H](C)O2)Oc2ccc(cc2Cl)[C@H]1O | R

Given the molecule "CCC[C@@H]1C[C@@H](C(=O)N[C@@H]([C@H]2O[C@H](SC)[C@H](O)[C@@H](O)[C@H]2O)[C@H](C)Cl)N(C)C1" , what is its reported Sensitive (S)/Resistant (R), S. Typhimurium? R

The measured values listed here are drawn from paper PMC3928365.
